Origin of values: PubChem BioAssay (NCI)

Here the recorded growth is given for each entry.
Tested on: HS 578T breast
test_summary: NCI-60 one-dose screen, 48 h (100 = growth as untreated, 0 = no growth, -100 = all killed)
measurement_context: 10 µM unless noted
Compounds without any hit were thinned out: in the full panel of roughly 83,000, 20% have a hit.
recorded_metric: growth (%)

• Cc1c(C2=NNC(c3ccc4c(c3)OCO4)C2)[n+]([O-])c2ccccc2[n+]1[O-] (stereo not given) = 94.3
• COc1cccc(-n2cc(-c3nc(Cl)c4ccccc4n3)nn2)c1 = 110
• COc1ccc(C2SCC(=O)N2NC(=O)c2ccc(NC(=O)c3ccccn3)cc2)cc1OC (stereo not given) = 102
• CN=S(=O)(NC(=O)c1ccc(Cl)cc1Cl)c1ccc(Br)s1 (stereo not given) = 97.8
• O=C1CCC/C=C\C[C@H]2C=CC(=O)/C2=C/C[C@H](C/C=C\CC(F)(F)F)O1 = 23.2
• COc1ccc(S(=O)(=O)NCCNc2nccc(-c3c(-c4ccccc4)nc4sccn34)n2)cc1 = 47
• COc1ccc(/C=C/c2nc(N3CCOCC3)c3nc(Cl)c(Cl)cc3n2)cc1OC = 113
• O=C1CCC(=O)N1Cc1ccccc1 = 102
• CN(C)CCCNC(=O)C(c1ccccc1)c1ccccc1 = 110
• COc1ccc(NC(=O)c2cc3ccccc3nc2Nc2cc(OC)c(OC)c(OC)c2)cc1 = 79
